Experiment: Oral bioavailability in dog at pH 2.2
Type: ADME, organism-based, Canis lupus familiaris
Conditions: in vivo
What bioavailability was measured for each of the following?
Give bare numbers, in %.

STRUCTURE SMILES	MEASURED QUANTITY	READOUT UNIT	OBSERVED
CN1Cc2c(c(O)c3ncc(Cc4ccc(F)c(Cl)c4)cc3c2N(C)S(C)(=O)=O)C1=O	bioavailability	%	60

Alright, here's another molecule for you.
# input Which bioavailability value belongs to "CN1Cc2c(c(O)c3ncc(Cc4ccc(F)cc4)cc3c2N(C)S(C)(=O)=O)C1=O" ?
# output 47

====

Assay: Clearance in iv dosed dog at pH 3.3
Format: ADME, organism-based, Canis lupus familiaris
Details: in vivo
MEASURED QUANTITY: clearance (L/h/kg)
Answers are plain numbers, in L/h/kg.

Could I get clearance for every one of these entries?
1. CN1Cc2c(c(O)c3ncc(Cc4ccc(F)c(Cl)c4)cc3c2N(C)S(C)(=O)=O)C1=O
2. CN1Cc2c(c(O)c3ncc(Cc4ccc(F)cc4)cc3c2N(C)S(C)(=O)=O)C1=O

# output
0.12
0.13

====

Target: Human immunodeficiency virus type 1 integrase (Human immunodeficiency virus 1, UniProt Q7ZJM1)
Sequence (Q7ZJM1 whole entry): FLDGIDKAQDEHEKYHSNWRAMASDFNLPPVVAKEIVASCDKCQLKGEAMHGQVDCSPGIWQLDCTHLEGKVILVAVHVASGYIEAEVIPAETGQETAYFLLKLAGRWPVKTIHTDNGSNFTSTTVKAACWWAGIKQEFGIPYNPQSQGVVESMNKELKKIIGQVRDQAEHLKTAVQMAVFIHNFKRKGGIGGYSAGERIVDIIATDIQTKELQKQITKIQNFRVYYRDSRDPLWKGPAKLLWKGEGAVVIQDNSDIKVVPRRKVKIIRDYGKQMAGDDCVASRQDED
What pIC50 was measured for each of the following?
Numbers only, as −log10 of the molar value.

A selection of reference data follows.
STRUCTURE SMILES	MEASURED QUANTITY	OBSERVED
CN1Cc2c(c(O)c3ncc(Cc4ccc(F)c(Cl)c4)cc3c2N(C)S(C)(=O)=O)C1=O	pIC50	6.58
COc1c2c(c(O)c3ncc(Cc4ccc(F)cc4)cc13)C(=O)N(C)C2	pIC50	7.00

Could I get pIC50 for every one of these entries?
1. COc1c2c(c(O)c3ncc(Cc4ccc(F)cc4)cc13)C(=O)N(Cc1ccc(F)cc1)C2
2. COc1c2c(c(O)c3ncc(Cc4ccc(F)cc4)cc13)C(=O)NC2
3. CN1Cc2c(c(O)c3ncc(Cc4ccc(F)cc4)cc3c2N(C)S(C)(=O)=O)C1=O

# output
1: 6.22; 2: 7.85; 3: 7.10

====

Assay: Oral bioavailability in rat at pH 2.2
Format: ADME, organism-based
Details: in vivo
MEASURED QUANTITY: bioavailability (%)
Answers are plain numbers, in %.

STRUCTURE SMILES	bioavailability, %
CN1Cc2c(c(O)c3ncc(Cc4ccc(F)cc4)cc3c2N(C)S(C)(=O)=O)C1=O	12

Alright, here's another compound for you.
# input Which bioavailability value belongs to "CN1Cc2c(c(O)c3ncc(Cc4ccc(F)c(Cl)c4)cc3c2N(C)S(C)(=O)=O)C1=O" ?
# output 11

====

Test: Clearance in iv dosed rat at pH 3.3
Format: ADME, organism-based
Details: in vivo
MEASURED QUANTITY: clearance
Record the result as number plus unit.

STRUCTURE SMILES	clearance
CN1Cc2c(c(O)c3ncc(Cc4ccc(F)cc4)cc3c2N(C)S(C)(=O)=O)C1=O	8.17 mL/min/kg

Alright, here's another compound for you.
# input Which clearance value belongs to "CN1Cc2c(c(O)c3ncc(Cc4ccc(F)c(Cl)c4)cc3c2N(C)S(C)(=O)=O)C1=O" ?
# output 3.67 mL/min/kg

====

Experiment: Half life in iv dosed rat at pH 3.3
Assay type: ADME, organism-based
Conditions: in vivo
MEASURED QUANTITY: half-life (h)
Answers are plain numbers, in h.

STRUCTURE SMILES	OBSERVED
CN1Cc2c(c(O)c3ncc(Cc4ccc(F)c(Cl)c4)cc3c2N(C)S(C)(=O)=O)C1=O	1.7

Alright, here's another molecule for you.
# input Which half-life value belongs to "CN1Cc2c(c(O)c3ncc(Cc4ccc(F)cc4)cc3c2N(C)S(C)(=O)=O)C1=O" ?
# output 0.4

====

What half-life was measured for each of the following?
Test: Half life in iv dosed dog at pH 3.3
Format: ADME, organism-based, Canis lupus familiaris
Conditions: in vivo
One number for each entry, in h.

STRUCTURE SMILES	MEASURED QUANTITY	READOUT UNIT	OBSERVED
CN1Cc2c(c(O)c3ncc(Cc4ccc(F)c(Cl)c4)cc3c2N(C)S(C)(=O)=O)C1=O	half-life	h	8.8

# input Which half-life value belongs to "CN1Cc2c(c(O)c3ncc(Cc4ccc(F)cc4)cc3c2N(C)S(C)(=O)=O)C1=O" ?
# output 4.4

Cited source for all entries: ChEMBL document CHEMBL1152709
